system: A549/ATCC; assay: NCI60 five-dose screen; assay type: cell-based; conditions: Homo sapiens, Non-small-Cell Lung Cancer
Catalogue of GI50 readings, one per entry.

STRUCTURE AS SMILES: O=c1cc(-c2ccccc2)oc2cc(OCCCC[P+](c3ccc(F)cc3)(c3ccc(F)cc3)c3ccc(F)cc3)cc(O)c12
GI50 / nM: 3210
--
STRUCTURE AS SMILES: O=c1cc(-c2ccccc2)oc2cc(OCCCC[P+](C3CCCCC3)(C3CCCCC3)C3CCCCC3)cc(O)c12
GI50 / nM: 1330
--
STRUCTURE AS SMILES: Cc1ccccc1[P+](CCCCOc1cc(O)c2c(=O)cc(-c3ccccc3)oc2c1)(c1ccccc1C)c1ccccc1C
GI50 / nM: 417
--
STRUCTURE AS SMILES: O=c1cc(-c2ccccc2)oc2cc(OCCCC[P+](c3ccccc3)(c3ccccc3)c3ccccc3)cc(O)c12
GI50 / nM: 908

----------
// Growth percent lookup, one value per entry
system: SR; test: NCI60 one-dose screen; format: cell-based, human; settings: 10 μM

MOLECULE: O=c1cc(-c2ccccc2)oc2cc(OCCCC[P+](c3ccc(F)cc3)(c3ccc(F)cc3)c3ccc(F)cc3)cc(O)c12 [3d]
Growth percent: −36.14%
--
MOLECULE: COc1c(C)cc([P+](CCCCOc2cc(O)c3c(=O)cc(-c4ccccc4)oc3c2)(c2cc(C)c(OC)c(C)c2)c2cc(C)c(OC)c(C)c2)cc1C [3f]
Growth percent: 23.00%
--
MOLECULE: O=c1cc(-c2ccccc2)oc2cc(OCCCC[P+](c3ccccc3)(c3ccccc3)c3ccccn3)cc(O)c12 [3h]
Growth percent: 0.35%
--
MOLECULE: O=c1cc(-c2ccccc2)oc2cc(OCCCC[P+](c3ccccc3)(c3ccccc3)c3ccccc3)cc(O)c12 [3a]
Growth percent: −39.83%
--
MOLECULE: Cc1ccc([P+](CCCCOc2cc(O)c3c(=O)cc(-c4ccccc4)oc3c2)(c2ccc(C)cc2)c2ccc(C)cc2)cc1 [3b]
Growth percent: −36.14%
--
MOLECULE: O=c1cc(-c2ccccc2)oc2cc(O)cc(O)c12 [compound 2, 5,7-dihydroxyflavone, reference compound]
Growth percent: 77.87%

----------
Each entry below carries its recorded GI50.
test system: Renal Cancer panel; test: NCI60 five-dose screen, panel mean; type: cell-based; details: Homo sapiens; mean over Renal Cancer panel

COMPOUND: COc1ccc([P+](CCCCOc2cc(O)c3c(=O)cc(-c4ccccc4)oc3c2)(c2ccc(OC)cc2)c2ccc(OC)cc2)cc1 [3c]
GI50, nM: 1030
--
COMPOUND: Cc1ccc([P+](CCCCOc2cc(O)c3c(=O)cc(-c4ccccc4)oc3c2)(c2ccc(C)cc2)c2ccc(C)cc2)cc1 [3b]
GI50, nM: 310
--
COMPOUND: O=c1cc(-c2ccccc2)oc2cc(OCCCC[P+](c3ccccc3)(c3ccccc3)c3ccccc3)cc(O)c12 [3a]
GI50, nM: 530
--
COMPOUND: COc1c(C)cc([P+](CCCCOc2cc(O)c3c(=O)cc(-c4ccccc4)oc3c2)(c2cc(C)c(OC)c(C)c2)c2cc(C)c(OC)c(C)c2)cc1C [3f]
GI50, nM: 320

----------
system: RXF 393
Doc: threshold 300 nM (exclusive). Items with GI50 beneath it return TRUE; others return FALSE.

COMPOUND: COc1ccc([P+](CCCCOc2cc(O)c3c(=O)cc(-c4ccccc4)oc3c2)(c2ccc(OC)cc2)c2ccc(OC)cc2)cc1 [3c]
LABEL CLASS: TRUE
--
COMPOUND: O=c1cc(-c2ccccc2)oc2cc(OCCCC[P+](c3ccc(F)cc3)(c3ccc(F)cc3)c3ccc(F)cc3)cc(O)c12 [3d]
LABEL CLASS: FALSE
--
COMPOUND: O=c1cc(-c2ccccc2)oc2cc(OCCCC[P+](C3CCCCC3)(C3CCCCC3)C3CCCCC3)cc(O)c12 [3e]
LABEL CLASS: FALSE
--
COMPOUND: O=c1cc(-c2ccccc2)oc2cc(OCCCC[P+](c3ccccc3)(c3ccccc3)c3ccccc3)cc(O)c12 [3a]
LABEL CLASS: TRUE
--
COMPOUND: O=c1cc(-c2ccccc2)oc2cc(OCCCC[P+](c3ccccc3)(c3ccccc3)c3ccccn3)cc(O)c12 [3h]
LABEL CLASS: FALSE
--
COMPOUND: COc1c(C)cc([P+](CCCCOc2cc(O)c3c(=O)cc(-c4ccccc4)oc3c2)(c2cc(C)c(OC)c(C)c2)c2cc(C)c(OC)c(C)c2)cc1C [3f]
LABEL CLASS: TRUE
--
COMPOUND: Cc1ccc([P+](CCCCOc2cc(O)c3c(=O)cc(-c4ccccc4)oc3c2)(c2ccc(C)cc2)c2ccc(C)cc2)cc1 [3b]
LABEL CLASS: FALSE

The measurements presented in this section are drawn from paper PMC12652692.
